- TARGET DESC: PI3K-delta (Homo sapiens (Human))
- Sequence (O00329 whole entry, looked up, one chain of several): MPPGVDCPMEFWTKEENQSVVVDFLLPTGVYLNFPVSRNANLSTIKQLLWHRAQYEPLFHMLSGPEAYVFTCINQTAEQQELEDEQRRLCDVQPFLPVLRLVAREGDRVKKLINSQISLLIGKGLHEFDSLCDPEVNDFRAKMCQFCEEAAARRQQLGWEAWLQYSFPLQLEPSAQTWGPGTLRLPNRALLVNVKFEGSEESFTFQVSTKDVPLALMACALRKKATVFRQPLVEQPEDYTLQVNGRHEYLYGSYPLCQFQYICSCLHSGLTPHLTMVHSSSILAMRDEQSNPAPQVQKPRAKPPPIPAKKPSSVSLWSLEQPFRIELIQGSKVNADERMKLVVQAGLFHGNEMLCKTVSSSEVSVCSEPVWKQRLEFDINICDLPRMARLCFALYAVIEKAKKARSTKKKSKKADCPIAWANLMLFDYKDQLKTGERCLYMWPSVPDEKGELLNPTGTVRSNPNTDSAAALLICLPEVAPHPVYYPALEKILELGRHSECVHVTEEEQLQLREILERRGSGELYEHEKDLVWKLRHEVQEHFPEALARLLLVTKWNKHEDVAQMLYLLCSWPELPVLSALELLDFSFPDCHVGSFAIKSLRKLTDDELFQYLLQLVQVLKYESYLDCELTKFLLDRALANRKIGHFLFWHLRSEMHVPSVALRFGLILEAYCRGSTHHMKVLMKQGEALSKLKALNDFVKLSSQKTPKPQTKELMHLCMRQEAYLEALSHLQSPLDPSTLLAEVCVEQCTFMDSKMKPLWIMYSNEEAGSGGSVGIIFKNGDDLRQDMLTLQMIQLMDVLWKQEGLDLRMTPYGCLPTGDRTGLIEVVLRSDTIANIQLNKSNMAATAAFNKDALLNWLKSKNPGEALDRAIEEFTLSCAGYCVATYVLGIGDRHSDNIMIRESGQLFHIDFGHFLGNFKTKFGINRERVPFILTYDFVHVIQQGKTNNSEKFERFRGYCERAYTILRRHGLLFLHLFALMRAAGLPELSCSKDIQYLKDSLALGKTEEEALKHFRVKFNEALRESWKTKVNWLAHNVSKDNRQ
- ASSAY PROTOCOL: biochemical
- TEST CONTEXT: PI3Kdelta IC50, HTRF biochemical assay; compound form screened given
OUTCOME MEASURE: pIC50
Just so you know, pIC50 here is -log10 of the concentration in molar units; reply with that number alone.

Supply measured pIC50 of CCn1c(-c2cnc(C)nc2)nc2c(O[C@H]3CCN(C(=O)C4CC45CCCC5)C3)ncnc21 (single isomer, unassigned) [Compound 2-122] in your reply. 7.80

In one line, give reported pIC50 of the entry CCn1c(-c2cnc(C)nc2)nc2c(O[C@@H]3CN(C(=O)C4CC4)CC3(C)C)ncnc21 (racemic) [Compound 3-62] . 8.64

Return value of pIC50 for input CCn1c(-c2cnc(C)nc2)nc2c(O[C@H]3CCN(C(=O)N4CCC4C)C3)ncnc21 (single isomer, unassigned) [Compound 5-15] , no commentary. 8.21

State, in one line, measured pIC50 of CCn1c(-c2cnc(C)nc2)nc2c(O[C@H]3CCN(C(=O)N4CCC4C)C3)ncnc21 (single isomer, unassigned) [Compound 5-16] 7.80

###

- TARGET DESC: PI3K-alpha (Homo sapiens (Human), UniProt P42336)
- Sequence (P42336 whole entry, looked up, canonical isoform): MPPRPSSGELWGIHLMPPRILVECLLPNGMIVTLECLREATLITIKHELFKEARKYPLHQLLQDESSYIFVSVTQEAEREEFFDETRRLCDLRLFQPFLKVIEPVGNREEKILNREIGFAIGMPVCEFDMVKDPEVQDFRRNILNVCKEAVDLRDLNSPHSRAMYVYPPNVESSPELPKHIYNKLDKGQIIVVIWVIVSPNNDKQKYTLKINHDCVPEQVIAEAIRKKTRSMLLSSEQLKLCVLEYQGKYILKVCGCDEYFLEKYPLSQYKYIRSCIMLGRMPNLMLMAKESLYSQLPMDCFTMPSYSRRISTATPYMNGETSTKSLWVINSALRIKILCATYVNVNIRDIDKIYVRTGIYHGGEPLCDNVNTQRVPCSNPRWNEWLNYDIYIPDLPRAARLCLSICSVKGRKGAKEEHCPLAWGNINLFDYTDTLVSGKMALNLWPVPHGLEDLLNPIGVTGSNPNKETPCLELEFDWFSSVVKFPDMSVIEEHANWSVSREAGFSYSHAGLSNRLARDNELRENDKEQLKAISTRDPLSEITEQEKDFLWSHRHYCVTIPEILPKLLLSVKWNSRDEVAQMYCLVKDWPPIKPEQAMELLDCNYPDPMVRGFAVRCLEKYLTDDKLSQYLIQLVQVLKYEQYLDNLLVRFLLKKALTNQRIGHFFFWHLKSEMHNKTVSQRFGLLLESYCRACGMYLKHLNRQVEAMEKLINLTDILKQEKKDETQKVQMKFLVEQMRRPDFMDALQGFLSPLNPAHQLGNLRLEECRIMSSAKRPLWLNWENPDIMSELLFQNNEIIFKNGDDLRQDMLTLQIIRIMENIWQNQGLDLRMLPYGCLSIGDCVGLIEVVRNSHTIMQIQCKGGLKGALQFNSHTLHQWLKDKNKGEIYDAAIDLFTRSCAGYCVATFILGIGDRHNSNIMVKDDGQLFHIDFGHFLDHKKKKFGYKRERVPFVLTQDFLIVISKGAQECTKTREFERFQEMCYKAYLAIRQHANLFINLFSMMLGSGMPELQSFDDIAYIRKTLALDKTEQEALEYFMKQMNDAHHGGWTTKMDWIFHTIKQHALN
- Sequence (P27986 whole entry partner, looked up, canonical isoform): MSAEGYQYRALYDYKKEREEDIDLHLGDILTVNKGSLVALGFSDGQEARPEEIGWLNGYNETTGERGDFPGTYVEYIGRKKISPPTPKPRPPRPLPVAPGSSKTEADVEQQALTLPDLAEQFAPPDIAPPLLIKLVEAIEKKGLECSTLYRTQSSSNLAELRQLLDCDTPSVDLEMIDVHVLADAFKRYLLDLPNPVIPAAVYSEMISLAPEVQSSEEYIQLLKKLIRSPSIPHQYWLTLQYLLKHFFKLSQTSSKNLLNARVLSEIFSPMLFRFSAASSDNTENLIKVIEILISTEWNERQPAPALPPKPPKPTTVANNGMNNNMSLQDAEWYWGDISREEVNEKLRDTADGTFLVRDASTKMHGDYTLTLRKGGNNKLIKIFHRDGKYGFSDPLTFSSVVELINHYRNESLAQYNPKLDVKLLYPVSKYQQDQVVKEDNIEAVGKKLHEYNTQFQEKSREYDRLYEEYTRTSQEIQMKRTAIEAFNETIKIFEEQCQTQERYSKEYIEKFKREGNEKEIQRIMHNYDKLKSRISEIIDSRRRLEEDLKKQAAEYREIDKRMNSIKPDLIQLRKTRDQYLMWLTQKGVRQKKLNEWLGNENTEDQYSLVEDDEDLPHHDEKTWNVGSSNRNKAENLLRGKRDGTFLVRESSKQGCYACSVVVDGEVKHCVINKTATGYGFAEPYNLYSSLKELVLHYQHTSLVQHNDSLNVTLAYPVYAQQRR
- ASSAY PROTOCOL: HTRF PI3K biochemical assay, alpha isoform
- TEST CONTEXT: ratio PI3K-alpha IC50 value/PI3K-delta IC50 value
OUTCOME MEASURE: Relative Selectivity versus PI3Kalpha

Send back PI3K-alpha (Homo sapiens (Human), UniProt P42336) Relative Selectivity versus PI3Kalpha of `CCn1c(-c2cnc(C)nc2)nc2c(O[C@H]3CCN(c4ccccn4)C3)ncnc21` only. >10

Please tell me the measured Relative Selectivity versus PI3Kalpha for `CCn1ncc(-c2nc3c(O[C@H]4CCN(C(=O)c5cnon5)C4)ncnc3n2C)c1C` ; system: PI3K-alpha (Homo sapiens (Human), UniProt P42336). 1

State measured Relative Selectivity versus PI3Kalpha of the molecule `CCn1ncc(-c2nc3c(O[C@H]4CCN(C(=O)c5cc(C(F)(F)F)nn5C)C4)ncnc3n2C)c1C` with PI3K-alpha (Homo sapiens (Human), UniProt P42336). >10

Report Relative Selectivity versus PI3Kalpha from PI3K-alpha (Homo sapiens (Human), UniProt P42336) testing of CCn1c(-c2cnc(C)nc2)nc2c(OC3CN(C(=O)C4CC4)CC3CF)ncnc21 (single isomer, unassigned) [Compound 3-68] >10

Provide the reported Relative Selectivity versus PI3Kalpha (system: PI3K-alpha (Homo sapiens (Human), UniProt P42336)) for `CCOC(=O)[C@H](C)NC(=O)N1CC[C@H](Oc2ncnc3c2nc(-c2cnn(CC)c2C)n3C)C1` 5

Please indicate recorded Relative Selectivity versus PI3Kalpha of Cc1ncc(-c2nc3c(OC4CCN(C(=O)OC(C)(C)C)C4)ncnc3n2C)cn1 (stereo not shown) measured with PI3K-alpha (Homo sapiens (Human), UniProt P42336). >10

Give Relative Selectivity versus PI3Kalpha; test system PI3K-alpha (Homo sapiens (Human), UniProt P42336); molecule `CCn1ncc(-c2nc3c(O[C@H]4CCN(c5ccccn5)C4)ncnc3n2C)c1C` >10

###

- TARGET DESC: UniProt P42336
- ASSAY PROTOCOL: HTRF PI3K biochemical assay, alpha isoform
- TEST CONTEXT: ratio PI3K-alpha IC50 value/PI3K-delta IC50 value
OUTCOME MEASURE: Relative Selectivity versus PI3Kalpha

Please report the measured Relative Selectivity versus PI3Kalpha for `CCn1ncc(-c2nc3c(O[C@H]4CCN(C(=O)c5cc(C)n(C)c5C)C4)ncnc3n2C)c1C` >10

Look up Relative Selectivity versus PI3Kalpha of `CCn1c(-c2cnc(C)nc2)nc2c(O[C@H]3CCN(c4cccc(F)c4)C3)ncnc21` and report it. >10

Quick one: give measured Relative Selectivity versus PI3Kalpha for `Cn1c(-c2cnc(C(C)(C)C)s2)nc2c(O[C@H]3CCN(C(=O)OC(C)(C)C)C3)ncnc21` >10

Specify measured Relative Selectivity versus PI3Kalpha for CCn1c(-c2cnc(C)nc2)nc2c(OC3CN(C(=O)C4CC4)CC3(F)F)ncnc21 (centres unmarked) . >10

Indicate its recorded Relative Selectivity versus PI3Kalpha; the compound in question is `CCn1ncc(C(=O)N2CC[C@H](Oc3ncnc4c3nc(-c3cnn(CC)c3C)n4C)C2)c1C` 10

Assign Relative Selectivity versus PI3Kalpha to the following record: `Cn1c(-c2cncc3ccccc23)nc2c(O[C@H]3CCN(C(=O)OC(C)(C)C)C3)ncnc21` >10

Output measured Relative Selectivity versus PI3Kalpha for this item: COC1CC(c2nc3c(OC4CCN(C(=O)OC(C)(C)C)C4)ncnc3n2C)C1 (centres unmarked) >5

Give the value of Relative Selectivity versus PI3Kalpha reported for the following: `CCC(=O)N1CC[C@H](Oc2ncnc3c2nc(-c2cnn(CC)c2C)n3CC)C1` >10

The measurements presented in this section are drawn from patent US9730940B2.
